# assay notes: Toxicity in ip dosed rat
# Assay type: organism-based
# assay context: in vivo
quantity kind: LD50 (mg/kg)

compound	measurement unit	recorded measurement
CCN(CC)C(C)C(=O)Nc1c(C)cccc1C (centres undefined)	mg/kg	89
CCCC(C(=O)Nc1c(C)cccc1C)N(CC)CC.Cl (centres undefined)	mg/kg	51
CCCCC(C(=O)Nc1c(C)cccc1C)N(CC)CC.Cl (centres undefined)	mg/kg	44
CCC(C(=O)Nc1c(C)cccc1C)N(CC)CC.Cl (centres undefined)	mg/kg	54

---

# System: Rattus norvegicus
# assay notes: Local anesthetic activity in rat assessed as time duration of motor activity block at 1 % injected around sciatic nerve
# Assay type: functional
Criterion: Time strictly under 200 min. Met: 1. Not met: -1.

compound	assayed target	category label
CCCC(C(=O)Nc1c(C)cccc1C)N(CC)CC.Cl (stereo not given)	Rattus norvegicus	1
CCN(CC)C(C)C(=O)Nc1c(C)cccc1C (stereo not given)	Rattus norvegicus	1
CCN(CC)CC(=O)Nc1c(C)cccc1C [LIDOCAINE]	Rattus norvegicus	1
CCC(C(=O)Nc1c(C)cccc1C)N(CC)CC.Cl (stereo not given)	Rattus norvegicus	-1

---

# System: Rattus norvegicus
# assay notes: Local anesthetic activity in rat assessed as frequency of motor activity block at 0.25 % injected around sciatic nerve
# Assay type: functional
Quick reference for Activity among some compounds
quantity kind: Activity (%)

compound	assayed target	recorded measurement
CCN(CC)CC(=O)Nc1c(C)cccc1C	Rattus norvegicus	100
CCN(CC)C(C)C(=O)Nc1c(C)cccc1C (stereo not given)	Rattus norvegicus	100
CCC(C(=O)Nc1c(C)cccc1C)N(CC)CC.Cl (stereo not given)	Rattus norvegicus	100
CCCCC(C(=O)Nc1c(C)cccc1C)N(CC)CC.Cl (stereo not given)	Rattus norvegicus	60
CCCC(C(=O)Nc1c(C)cccc1C)N(CC)CC.Cl (stereo not given)	Rattus norvegicus	100

---

# assay notes: Ionization constant, pKa of the compound
# Type: physicochemical
Quick reference for pKa among some compounds

compound	pKa
CCCCC(C(=O)Nc1c(C)cccc1C)N(CC)CC.Cl (centres undefined)	7.81
CCCC(C(=O)Nc1c(C)cccc1C)N(CC)CC.Cl (centres undefined)	7.89
CCC(C(=O)Nc1c(C)cccc1C)N(CC)CC.Cl (centres undefined)	7.91
CCN(CC)C(C)C(=O)Nc1c(C)cccc1C (centres undefined)	8.12
